target_or_system: T1, extracellular domain of rhesus monkey BCMA (rhesus monkey, UniProt F7FFA0 1-53)
T1 construct: extracellular domain; also called RhBCMA
T1 sequence (F7FFA0 entry or part of it): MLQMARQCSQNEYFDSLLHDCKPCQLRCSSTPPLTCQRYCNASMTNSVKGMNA
test_name: Octet BLI; Fab 200 nM
quantity: Kd (nM)
Give your result in nM as a bare value.

Query string: Give the value of Kd reported for the following: AB200-R1a-Fab_VH27 (Fab, V domains shown) VH: QVQLVQSGAEVKKPGSSVKVSCKATGGTFSNYWMHWVRQAPGQGLEWMGAIYRGHSDTYYNQKFRGRVTITADKSTSTAYMELSSLRSEDTAVYYCARGAIYHGYDVLDNWGQGTLVTVSS VL: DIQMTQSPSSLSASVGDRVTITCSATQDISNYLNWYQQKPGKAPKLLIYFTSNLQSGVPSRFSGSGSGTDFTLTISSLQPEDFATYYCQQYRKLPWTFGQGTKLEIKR
Result string: 7.84

Query string: Give the value of Kd reported for the following: AB200-R1a-Fab_VH1 (Fab, V domains shown) VH: QVQLVQSGAEVKKPGSSVKVSCKASGGTFSNYWMHWVRQAPGQGLEWMGATYRGHSETYYNEKFKGRVTITADKSTSTAYMELSSLRSEDTAVYYCARGAIYHGYDVLDDWGQGTLVTVSS VL: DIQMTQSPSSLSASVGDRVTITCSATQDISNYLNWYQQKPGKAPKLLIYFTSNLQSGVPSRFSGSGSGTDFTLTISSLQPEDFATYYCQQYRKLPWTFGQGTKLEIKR
Result string: 32.2
